The reader will find reported selectivity ratio values listed item by item below.
# assay_details: Selectivity index, ratio of IC50 for rat L6 cells to IC50 for Trypanosoma brucei rhodesiense STIB900
# Assay type: toxicity, cell-based
# condition_details: L6 cells versus Trypanosoma brucei rhodesiense STIB900, read-out: Ratio IC50
Please give only the number in your answer, with no unit.

Here is how some molecules turned out for selectivity ratio.
>>> reported_measurement("c1ccc(CON2CCN=C2Nc2ccc(Nc3ccc(NC4=NCCN4OCc4ccccc4)cc3)cc2)cc1")
34.7
>>> reported_measurement("c1cc(Nc2ccc(NC3=NCCN3)cc2)ccc1NC1=NCCN1")
3070
>>> reported_measurement("CCON1CCN=C1Nc1ccc(Nc2ccc(NC3=NCCN3OCC)cc2)cc1")
55
>>> reported_measurement("ON1CCN=C1Nc1ccc(Nc2ccc(NC3=NCCN3O)cc2)cc1")
236
>>> reported_measurement("c1cc(Nc2ccc(NC3=NCCS3)cc2)ccc1NC1=NCCS1")
4.7
>>> reported_measurement("CON1CCN=C1Nc1ccc(Nc2ccc(NC3=NCCN3OC)cc2)cc1")
65.6

Req: Can you look up the measured selectivity ratio of c1cc(Nc2ccc(NC3=NCCN3OC3CCCCO3)cc2)ccc1NC1=NCCN1OC1CCCCO1 (configuration not stated) for me?
Resp: 17

* * *

# System: Leishmania donovani
# assay_details: Antiprotozoal activity against amastigotes of Leishmania donovani MHOM/ET/67/L82 by alamar blue assay
# Assay type: functional, organism-based
Binary call on IC50 with cut-off 60 µM: strictly below means Satisfied, and equality or higher means Not satisfied.

Solved entries (count: 5):
>>> label_value("CCON1CCN=C1Nc1ccc(Nc2ccc(NC3=NCCN3OCC)cc2)cc1")
"Not satisfied"
>>> label_value("CON1CCN=C1Nc1ccc(Nc2ccc(NC3=NCCN3OC)cc2)cc1")
"Satisfied"
>>> label_value("O=C1c2ccccc2C(=O)N1CCN(OCc1ccccc1)C(=S)Nc1ccc(Nc2ccc(NC(=S)N(CCN3C(=O)c4ccccc4C3=O)OCc3ccccc3)cc2)cc1")
"Satisfied"
>>> label_value("CON(CCN1C(=O)c2ccccc2C1=O)C(=S)Nc1ccc(Nc2ccc(NC(=S)N(CCN3C(=O)c4ccccc4C3=O)OC)cc2)cc1")
"Not satisfied"
>>> label_value("CON(CCNC(=S)Nc1ccc(Nc2ccc(NC(=S)NCCN(OC)S(=O)(=O)c3ccccc3[N+](=O)[O-])cc2)cc1)S(=O)(=O)c1ccccc1[N+](=O)[O-]")
"Not satisfied"

Req: I'd appreciate it if you could check whether c1cc(Nc2ccc(NC3=NCCN3OC3CCCCO3)cc2)ccc1NC1=NCCN1OC1CCCCO1 (stereo not given) has IC50 smaller than 60 µM.
Resp: Satisfied

Req: I'd appreciate it if you could check whether "c1ccc(CON2CCN=C2Nc2ccc(Nc3ccc(NC4=NCCN4OCc4ccccc4)cc3)cc2)cc1" has IC50 smaller than 60 µM.
Resp: Not satisfied

Req: I'd appreciate it if you could check whether "c1cc(Nc2ccc(NC3=NCCS3)cc2)ccc1NC1=NCCS1" has IC50 smaller than 60 µM.
Resp: Not satisfied

Req: I'd appreciate it if you could check whether "CCON(CCNC(=S)Nc1ccc(Nc2ccc(NC(=S)NCCN(OCC)S(=O)(=O)c3ccccc3[N+](=O)[O-])cc2)cc1)S(=O)(=O)c1ccccc1[N+](=O)[O-]" has IC50 smaller than 60 µM.
Resp: Satisfied

Req: I'd appreciate it if you could check whether "ON1CCN=C1Nc1ccc(Nc2ccc(NC3=NCCN3O)cc2)cc1" has IC50 smaller than 60 µM.
Resp: Satisfied
